Please go through the items and note down their EC50 hC3 cleavage.
System tested: plasma purified human complement protein C3 (human) (UniProt P01024)
Sequence (P01024 23-667, chain 1 of 2): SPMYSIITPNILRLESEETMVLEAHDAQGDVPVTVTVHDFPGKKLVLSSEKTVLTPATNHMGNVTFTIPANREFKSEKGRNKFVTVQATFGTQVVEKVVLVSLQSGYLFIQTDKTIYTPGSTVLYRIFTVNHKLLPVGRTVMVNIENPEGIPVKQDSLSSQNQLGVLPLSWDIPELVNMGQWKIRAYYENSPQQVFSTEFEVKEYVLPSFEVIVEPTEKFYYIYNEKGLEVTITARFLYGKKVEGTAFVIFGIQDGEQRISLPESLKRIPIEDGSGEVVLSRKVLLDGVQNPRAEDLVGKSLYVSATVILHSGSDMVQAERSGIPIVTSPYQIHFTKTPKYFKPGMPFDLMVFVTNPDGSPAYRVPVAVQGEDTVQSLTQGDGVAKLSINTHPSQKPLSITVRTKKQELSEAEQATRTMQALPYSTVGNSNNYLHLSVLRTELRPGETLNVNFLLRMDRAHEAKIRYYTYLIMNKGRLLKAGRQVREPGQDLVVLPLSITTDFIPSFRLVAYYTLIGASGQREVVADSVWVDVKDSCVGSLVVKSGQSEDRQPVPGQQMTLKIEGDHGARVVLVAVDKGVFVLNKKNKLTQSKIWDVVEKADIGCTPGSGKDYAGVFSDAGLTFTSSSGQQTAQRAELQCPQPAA
Sequence (P01024 672-1663, chain 2 of 2): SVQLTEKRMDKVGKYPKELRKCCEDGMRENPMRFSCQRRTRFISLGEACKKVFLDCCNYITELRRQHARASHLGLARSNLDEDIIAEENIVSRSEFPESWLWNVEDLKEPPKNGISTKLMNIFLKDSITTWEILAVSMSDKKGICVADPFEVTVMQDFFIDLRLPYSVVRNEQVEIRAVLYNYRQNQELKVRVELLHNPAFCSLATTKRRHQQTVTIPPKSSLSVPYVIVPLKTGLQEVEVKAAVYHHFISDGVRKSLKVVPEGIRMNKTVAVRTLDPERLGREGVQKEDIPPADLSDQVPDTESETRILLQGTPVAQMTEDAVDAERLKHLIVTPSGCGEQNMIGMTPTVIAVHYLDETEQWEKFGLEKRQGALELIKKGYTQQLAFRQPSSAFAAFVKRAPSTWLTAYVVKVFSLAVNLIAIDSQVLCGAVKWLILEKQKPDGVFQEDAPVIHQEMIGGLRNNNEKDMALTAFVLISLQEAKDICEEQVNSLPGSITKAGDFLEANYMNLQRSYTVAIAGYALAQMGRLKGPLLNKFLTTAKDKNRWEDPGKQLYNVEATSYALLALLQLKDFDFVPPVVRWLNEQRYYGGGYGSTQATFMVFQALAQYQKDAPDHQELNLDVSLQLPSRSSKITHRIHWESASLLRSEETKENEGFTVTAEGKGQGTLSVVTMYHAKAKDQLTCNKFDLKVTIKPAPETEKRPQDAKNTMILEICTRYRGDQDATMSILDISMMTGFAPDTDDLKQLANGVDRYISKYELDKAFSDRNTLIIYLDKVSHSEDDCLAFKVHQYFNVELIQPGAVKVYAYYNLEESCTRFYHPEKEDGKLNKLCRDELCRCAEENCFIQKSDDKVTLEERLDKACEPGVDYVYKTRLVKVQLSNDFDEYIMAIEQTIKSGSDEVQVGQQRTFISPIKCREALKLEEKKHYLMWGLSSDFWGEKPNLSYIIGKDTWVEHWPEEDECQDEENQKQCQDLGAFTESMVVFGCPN
Protocol notes: cell-based or functional assay
The reply should contain only the number, in nM.

State the recorded EC50 hC3 cleavage for this entry: MTSP-1 protease domain Q38Y/I41S/D60bV/F60eR/Y60gF/D96M/F97N/T98G/F99L/C122S/G151N/Q175L/Q192D (enzyme) VVGGTDADEGEWPWQVSLHALGYGHSCGASLISPNWLVSAAHCYIDVRGRRFSDPTQWTAFLGLHDQSQRSAPGVQERRLKRIISHPFFNMNGLDYDIALLELEKPAEYSSMVRPISLPDASHVFPAGKAIWVTGWGHTQYGGTNALILQKGEIRVINQTTCENLLPQLITPRMMCVGFLSGGVDSCDGDSGGPLSSVEADGRIFQAGVVSWGDGCAQRNKPGVYTRLPLFRDWIKENTGV
5.25

Check MTSP-1 protease domain Q38H/I41S/D60bT/F60eS/Y60gW/D96F/F97S/ins97aD/T98G/F99L/C122S/G151H/Q175L/Q192D (enzyme) VVGGTDADEGEWPWQVSLHALGHGHSCGASLISPNWLVSAAHCYIDTRGSRWSDPTQWTAFLGLHDQSQRSAPGVQERRLKRIISHPFFNFSDGLDYDIALLELEKPAEYSSMVRPISLPDASHVFPAGKAIWVTGWGHTQYGGTHALILQKGEIRVINQTTCENLLPQLITPRMMCVGFLSGGVDSCDGDSGGPLSSVEADGRIFQAGVVSWGDGCAQRNKPGVYTRLPLFRDWIKENTGV too.
5.17

Check MTSP-1 protease domain I41A/F97W/T98S/F99L/C122S/Q192A (enzyme) VVGGTDADEGEWPWQVSLHALGQGHACGASLISPNWLVSAAHCYIDDRGFRYSDPTQWTAFLGLHDQSQRSAPGVQERRLKRIISHPFFNDWSLDYDIALLELEKPAEYSSMVRPISLPDASHVFPAGKAIWVTGWGHTQYGGTGALILQKGEIRVINQTTCENLLPQQITPRMMCVGFLSGGVDSCAGDSGGPLSSVEADGRIFQAGVVSWGDGCAQRNKPGVYTRLPLFRDWIKENTGV too.
27

Check MTSP-1 protease domain Q38H/I41S/D60bT/F60eS/Y60gW/D96Y/F97N/ins97aE/T98S/F99L/C122S/G151H/Q175L/Q192D (enzyme) VVGGTDADEGEWPWQVSLHALGHGHSCGASLISPNWLVSAAHCYIDTRGSRWSDPTQWTAFLGLHDQSQRSAPGVQERRLKRIISHPFFNYNESLDYDIALLELEKPAEYSSMVRPISLPDASHVFPAGKAIWVTGWGHTQYGGTHALILQKGEIRVINQTTCENLLPQLITPRMMCVGFLSGGVDSCDGDSGGPLSSVEADGRIFQAGVVSWGDGCAQRNKPGVYTRLPLFRDWIKENTGV too.
4.53

Check MTSP-1 protease domain I41D/D96E/C122S/G151N/Q192T (enzyme) VVGGTDADEGEWPWQVSLHALGQGHDCGASLISPNWLVSAAHCYIDDRGFRYSDPTQWTAFLGLHDQSQRSAPGVQERRLKRIISHPFFNEFTFDYDIALLELEKPAEYSSMVRPISLPDASHVFPAGKAIWVTGWGHTQYGGTNALILQKGEIRVINQTTCENLLPQQITPRMMCVGFLSGGVDSCTGDSGGPLSSVEADGRIFQAGVVSWGDGCAQRNKPGVYTRLPLFRDWIKENTGV too.
78.8

Check MTSP-1 protease domain I41D/F97T/F99L/C122S/Q175S/Q192T/D217A (enzyme) VVGGTDADEGEWPWQVSLHALGQGHDCGASLISPNWLVSAAHCYIDDRGFRYSDPTQWTAFLGLHDQSQRSAPGVQERRLKRIISHPFFNDTTLDYDIALLELEKPAEYSSMVRPISLPDASHVFPAGKAIWVTGWGHTQYGGTGALILQKGEIRVINQTTCENLLPQSITPRMMCVGFLSGGVDSCTGDSGGPLSSVEADGRIFQAGVVSWGAGCAQRNKPGVYTRLPLFRDWIKENTGV too.
52.1

Check MTSP-1 protease domain Q38Y/I41S/D60bT/F60eR/Y60gW/D96M/F97N/T98G/F99L/C122S/G151N/Q175L (enzyme) VVGGTDADEGEWPWQVSLHALGYGHSCGASLISPNWLVSAAHCYIDTRGRRWSDPTQWTAFLGLHDQSQRSAPGVQERRLKRIISHPFFNMNGLDYDIALLELEKPAEYSSMVRPISLPDASHVFPAGKAIWVTGWGHTQYGGTNALILQKGEIRVINQTTCENLLPQLITPRMMCVGFLSGGVDSCQGDSGGPLSSVEADGRIFQAGVVSWGDGCAQRNKPGVYTRLPLFRDWIKENTGV too.
1.08

Check MTSP-1 protease domain I41S/ins97aT/F99L/C122S/Q175R/Q192H (enzyme) VVGGTDADEGEWPWQVSLHALGQGHSCGASLISPNWLVSAAHCYIDDRGFRYSDPTQWTAFLGLHDQSQRSAPGVQERRLKRIISHPFFNDFTTLDYDIALLELEKPAEYSSMVRPISLPDASHVFPAGKAIWVTGWGHTQYGGTGALILQKGEIRVINQTTCENLLPQRITPRMMCVGFLSGGVDSCHGDSGGPLSSVEADGRIFQAGVVSWGDGCAQRNKPGVYTRLPLFRDWIKENTGV too.
27.5

Check MTSP-1 protease domain Q38H/I41S/D96K/ins97aD/C122S/G151N/Q192S (enzyme) VVGGTDADEGEWPWQVSLHALGHGHSCGASLISPNWLVSAAHCYIDDRGFRYSDPTQWTAFLGLHDQSQRSAPGVQERRLKRIISHPFFNKFDTFDYDIALLELEKPAEYSSMVRPISLPDASHVFPAGKAIWVTGWGHTQYGGTNALILQKGEIRVINQTTCENLLPQQITPRMMCVGFLSGGVDSCSGDSGGPLSSVEADGRIFQAGVVSWGDGCAQRNKPGVYTRLPLFRDWIKENTGV too.
26.8

Check MTSP-1 protease domain Q38H/I41A/D60bV/F60eR/Y60gW/D96F/F97Y/ins97aN/T98G/F99M/C122S/G151N/Q175L/Q192G (enzyme) VVGGTDADEGEWPWQVSLHALGHGHACGASLISPNWLVSAAHCYIDVRGRRWSDPTQWTAFLGLHDQSQRSAPGVQERRLKRIISHPFFNFYNGMDYDIALLELEKPAEYSSMVRPISLPDASHVFPAGKAIWVTGWGHTQYGGTNALILQKGEIRVINQTTCENLLPQLITPRMMCVGFLSGGVDSCGGDSGGPLSSVEADGRIFQAGVVSWGDGCAQRNKPGVYTRLPLFRDWIKENTGV too.
3.76

Source listed as patent US20240018502A1.
